Recorded inhibition of PDE IV (percentage) for the following compounds
# Tested on: PDE IV
# procedureDetails: Inhibition of PDE IV isolated from canine tracheal muscle (cAMP metabolism)
# Type: biochemical
# recordedConditions: at 10^-5 (concentration unit not given); percentage of the reduction induced by 10 μM rolipram; canine trachealis PDE IV
# Experimental: The following assay is employed to assess the ability of the compound of the invention to inhibit PDE IV. A solution containing PDE IV is prepared from canine tracheal muscle as follows: The dog is euthanized with an overdose of euthanasia while under anesthesia induced by a 33 mg/kg IV bolus of Nembutal. The trachealis muscle is removed, cleaned of connective tissue, and minced thoroughly. Three to four grams of tissue is then homogenized in Trim-HCl buffer (pH 7.8) using a Polytron. […]
Counter-ions that a name gives are not always drawn.
Please respond with the number in % and leave the unit unwritten.

compound: COc1ccc(C2CC(=O)NN2C(N)=O)cc1OC1CCCC1 (stereo not shown) [Example 5]
target: PDE IV
inhibition of PDE IV (percentage) (%): 39

compound: COC(=O)N1NC(=O)CC1c1ccc(OC)c(OC2CCCC2)c1 (stereo not shown) [Example 6]
target: PDE IV
inhibition of PDE IV (percentage) (%): 52

compound: COc1ccc(C2CC(=O)N(C(=O)Nc3ccccc3)N2C)cc1OC1CCCC1 (stereo not shown) [Example 16, hydrochloride]
target: PDE IV
inhibition of PDE IV (percentage) (%): 48

Kindly review the next compound as well.
Return inhibition of PDE IV (percentage) measured with PDE IV given this compound: COc1ccc(C2CC(=O)NN2CC(=O)O)cc1OC1CCCC1 (stereo not shown) [Example 7]
39

FYI, the data here is from patent US5250700A.
